Biological target: human uPAR displayed on the surface of MDA-MB-231 cells (human, UniProt Q03405 23-305)
Sequence (Q03405 23-305): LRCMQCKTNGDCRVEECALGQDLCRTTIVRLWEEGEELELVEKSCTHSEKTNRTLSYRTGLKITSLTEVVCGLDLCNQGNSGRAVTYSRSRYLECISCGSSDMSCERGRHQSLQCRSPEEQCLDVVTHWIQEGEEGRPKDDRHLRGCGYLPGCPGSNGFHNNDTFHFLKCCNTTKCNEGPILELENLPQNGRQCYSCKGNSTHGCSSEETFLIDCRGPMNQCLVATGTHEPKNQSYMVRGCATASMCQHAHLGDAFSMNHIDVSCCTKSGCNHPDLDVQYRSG
Test: cell-based or functional assay
// values below are reported ADCC PBMCs EC50
MEASURED METRIC: ADCC PBMCs EC50 (nM)

{"BINDER": "Antibody 3159 (antibody, human IgG1, V domains shown, Chimeric: mouse VH/VL linked to Herceptin (trastuzumab) human IgG1 / kappa constant regions) VH: QVTLKESGPGILQSSLTLSLTCSLSGFSLSTSGMGVSWIRQPSGKGLEWLAHIYWDDDKRYNPSLKTRLTISKDASRDQVFLKIISVDTADTGTYYCGRRVRNYFSGTSYWYFDVWGTGTTVTVSS VL: DVLMTQTPLSLSVSLGDQASISCRSSQNILHRTGNTYLEWYLQKPGQSPKLLIYKVSNRFSGVPDRFSGSGSGTDFTLKISRLEAEDLGVYYCFQGSYVPFTFGSGTKLEMK", "MEASURED METRIC": "ADCC PBMCs EC50", "VAL": 0.11}
{"BINDER": "Antibody 11857 (antibody, human IgG1, V domains shown) VH: EVQLRQSGPELVKPGASVKISCKASGYTFTDYYMNWVKQSHEKSLEWIGNINPNNGGTDYNQKFKGKATLTVDKSSSTAYMELRSLTSEDSAVYYCARSYGSRFPYWGLGTLVTVSA VL: DIQMTQTTSSLSASLGDRVTISCRASQDITNYLSWYQQKPDGTVKLLIFYTAVLQSGFPLRFSGSGSGADYSLTISNLEQEDFATYFCQQGHTLPWTFGGGTKLEIK", "MEASURED METRIC": "ADCC PBMCs EC50", "VAL": 0.35}
{"BINDER": "Antibody 8163 (antibody, human IgG1, V domains shown, Chimeric: mouse VH/VL linked to Herceptin (trastuzumab) human IgG1 / kappa constant regions) VH: EVQLVESGGGLVQPGESLTLSCDSNEFDFPSHDMSWVRKTPEKRLELVAAIDSDGGLTYYSNSRERRFIISRDNTKNTLYLQMRSLRSEDTALYYCARRRASYWYFDVWGTGTTVTVSS VL: DILLTQSPAILPVSPGERVSFSCRASQNIGTSIHWYQQRTNGSPRLLIKYASESISGIPSRFSGSGSGTDFTLSINGVESEDIGDYYCQQSNSWPTFGGGTKLEIK", "MEASURED METRIC": "ADCC PBMCs EC50", "VAL": 0.09}
{"BINDER": "Antibody 3595 (antibody, human IgG1, V domains shown, Chimeric: mouse VH/VL linked to Herceptin (trastuzumab) human IgG1 / kappa constant regions) VH: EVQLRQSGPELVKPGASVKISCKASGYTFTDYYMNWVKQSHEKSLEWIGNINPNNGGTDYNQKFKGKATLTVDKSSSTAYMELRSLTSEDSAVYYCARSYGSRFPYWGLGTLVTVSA VL: DIQMTQTTSSLSASLGDRVTISCRASQDITNYLSWYQQKPDGTVKLLIFYTSFLQSGVPLRFSGSGSGADYSLTISNLEQEDFATYFCQQGHTLPWTFGGGTKLEIK", "MEASURED METRIC": "ADCC PBMCs EC50", "VAL": 0.1}
